tested on: biotinyl-Phe-oxazolone; assay: self-aminoacylation, catalytic enhancement (BFO) (fold over background); higher = more active; k-Seq, kA / k0A0; sequences stand for … in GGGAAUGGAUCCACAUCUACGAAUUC…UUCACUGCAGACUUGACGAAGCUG
Fewer inactive variants are shown than the library holds.
Kindly state self-aminoacylation for each of the entries shown.
Numbers only.

AAGUCUGCUAACAGUCGCAAG [Fam3.1 aminoacylation ribozyme variant]	28.4

# per-item lookup of self-aminoacylation; items listed below
1. CCAAACUUCAAGCAUUCGGUC [Fam1B.1 aminoacylation ribozyme variant]
2. AUUACCCUGGUAAUCCAGUGA [Fam2.1 aminoacylation ribozyme variant]
3. CAGUUUGCCAAUAGUCGCAAG [Fam3.1 aminoacylation ribozyme variant]
4. AUUCACCUAGGUCGUCGGAUG [Fam2.2 aminoacylation ribozyme variant]
5. CUACUUCAAACAUUCGGUCUG [Fam1A.1 aminoacylation ribozyme variant]
6. GAGUUUGCUAGUAGUCGCAAG [Fam3.1 aminoacylation ribozyme variant]

1.96
51.9
6.08
0.37
0.828
1.92

# per-item lookup of self-aminoacylation; items listed below
1. GCACACUUCAAGCAAUCGGUA [Fam1B.1 aminoacylation ribozyme variant]
2. CUACUUCAAACAAUCGGCCUU [Fam1A.1 aminoacylation ribozyme variant]
3. AUGUUUGCUAAUAGUCACAAG [Fam3.1 aminoacylation ribozyme variant]
4. AAGGUGGCUAAUAGUCGCAAG [Fam3.1 aminoacylation ribozyme variant]
5. AUUACUCUGGACAUCGAGUGA [Fam2.1 aminoacylation ribozyme variant]
6. UCGUUUGCUAAUAGUCGCAAG [Fam3.1 aminoacylation ribozyme variant]

2.95
2.48
5.37
1.82
30.9
4.06

These data points were gathered from the supplement of paper PMC9233669.
